- target desc: Wild-type SARS-CoV-2 full length spike trimer (SARS-CoV-2, wild type (Wuhan-Hu-1), UniProt P0DTC2)
- assay notes: BLI
measurement name: Kd (nM)
Give your result in nM as a bare value.

Briefly, Kd measured for 80R_10 antibody (antibody, V domains shown) VH: EVQLVQSGGGVVQPGKSLRLSCVASGFDFKSYAMHWVRQAPGKGLEWVAVISYDGRYKYYADSVKGRFTISRDNSKNTLYLQMNSLRAEDTAVYYCARDRSYYLDYWGQGTLVTVSS VL: TTLTQSPATLSLSPGERATLSCHASEDIGTALAWYQQKPGQAPRPLIFYAAQLAPGIPDRFSGSGSGTDFTLTISRLEPEDFAVYYCFQSWTLPLTFGQGTKVEVK : 1.82

Briefly, Kd measured for 80R_18 antibody (antibody, V domains shown) VH: EVQLVQSGGGVVQPGKSLRLSCVASGFNFSEYAMHWVRQAPGKGLEWVAVISYDGSYKYYADSVKGRFTISRDNSKNTLYLQMNSLRAEDTAVYYCARDNAYYLDYWGQGTLVTVSS VL: TTLTQSPATLSLSPGERATLSCQASEDIGTNLAWYQQKPGQAPRPLIFDAAQLAPGIPDRFSGSGSGTQFTLTISRLEPEDFAVYYCQQIYNWPPSFGQGTKVEVK : 2.68

Briefly, Kd measured for 80R_6 antibody (antibody, V domains shown) VH: EVQLVQSGGGVVQPGKSLRLSCTASGFNFSEYAMHWVRQAPGKGLEWVAVISYDGSYKYYADSVKGRFTISRDNSKNTLYLQMNSLRAEDTAVYYCARDRSYYLDYWGQGTLVTVSS VL: TTLTQSPATLSLSPGERATLSCKASEDIGSNLAWYQQKPGQAPRPLIFDAAQLAPGIPDRFSGSGSGTDFTLTISRLEPEDFAVYYCFQIYTWPPTFGQGTKVEVK : 4.16
